Provenance of the data: ChEMBL document CHEMBL2390879

Target: Amine oxidase [flavin-containing] B (Homo sapiens)
Experiment: Competitive inhibition of human recombinant monoamine oxidase-B using kynuramine as substrate by Morrison equation analysis
OBSERVABLE: Ki (nM)

INSERT INTO results (compound, result) VALUES
  ('O=C1OCc2ccc(OCc3ccc(C(F)(F)F)cc3)cc21', 0.46);

---

Target: Amine oxidase [flavin-containing] B (Homo sapiens, UniProt P27338)
Sequence (P27338 whole entry): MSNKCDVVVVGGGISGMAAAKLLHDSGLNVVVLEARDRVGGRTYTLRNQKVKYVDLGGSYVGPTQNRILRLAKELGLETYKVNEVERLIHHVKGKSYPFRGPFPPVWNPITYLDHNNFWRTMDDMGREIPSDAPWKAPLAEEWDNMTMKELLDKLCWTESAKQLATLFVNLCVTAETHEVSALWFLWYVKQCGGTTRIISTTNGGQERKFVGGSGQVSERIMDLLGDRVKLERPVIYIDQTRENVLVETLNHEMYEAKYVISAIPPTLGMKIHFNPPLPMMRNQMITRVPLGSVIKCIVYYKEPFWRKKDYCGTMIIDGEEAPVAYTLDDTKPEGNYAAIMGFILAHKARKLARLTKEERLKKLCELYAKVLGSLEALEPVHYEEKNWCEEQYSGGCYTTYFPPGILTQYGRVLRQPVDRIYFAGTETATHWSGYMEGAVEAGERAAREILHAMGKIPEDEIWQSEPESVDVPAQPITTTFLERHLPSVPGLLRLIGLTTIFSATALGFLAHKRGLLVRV
Experiment: Competitive inhibition of human recombinant monoamine oxidase-B using kynuramine as substrate by Lineweaver-Burk plot analysis
pKi: −log10 of the molar value.
OBSERVABLE: pKi

INSERT INTO results (compound, observable, result) VALUES
  ('O=C1OCc2ccc(OCc3ccc(C(F)(F)F)cc3)cc21', 'pKi', 9.15);
